- Test system: Staphylococcus aureus
- method-summary: Antibacterial activity against methicillin-resistant Staphylococcus aureus N 315 by microbroth dilution method
- Type: functional
parameter-measured: MIC (µg/mL)
Write it as a number; the unit µg/mL goes unstated.

Consider the following illustrative entries.
O=C1c2cccc3c(Br)ccc(c23)C(=O)N1CCCn1c[n+](Cc2ccccc2Cl)cn1.[Br-] 16
O=C(N[C@H](CO)[C@H](O)c1ccc([N+](=O)[O-])cc1)C(Cl)Cl 4
O=C1c2cccc3c(Br)ccc(c23)C(=O)N1CCCn1c[n+](Cc2ccc(F)cc2F)cn1.[Br-] 4

Ask | Would you mind telling me what MIC value was observed for O=C1c2cccc3c(Br)ccc(c23)C(=O)N1CCCn1c[n+](Cc2ccc(Cl)cc2Cl)cn1.[Br-] ?
Reply | 16

Ask | Thanks! And O=C1c2cccc3c(Br)ccc(c23)C(=O)N1CCCn1cc[n+](Cc2ccc(F)cc2F)c1.[Br-] ?
Reply | 4

Ask | Thanks! And O=C1c2cccc3c(Br)ccc(c23)C(=O)N1CCCCCn1cc[n+](Cc2ccc(F)cc2F)c1.[Br-] ?
Reply | 8

Ask | Thanks! And O=C1c2cccc3c(Br)ccc(c23)C(=O)N1CCCCCCn1cc[n+](Cc2ccc(F)cc2F)c1.[Br-] ?
Reply | 16

###

- Test system: Escherichia coli
- method-summary: Antibacterial activity against Escherichia coli JM 109 by microbroth dilution method
- Type: functional
The reader will find reported MIC values listed item by item below.
Write it as a number; the unit µg/mL goes unstated.

O=C1c2cccc3c(Br)ccc(c23)C(=O)N1CCCCn1cc[n+](Cc2ccc(F)cc2F)c1.[Br-] 8
O=C1c2cccc3c(Br)ccc(c23)C(=O)N1CCCCn1c[n+](Cc2ccc(F)cc2F)cn1.[Br-] 8
O=C1c2cccc3c(Br)ccc(c23)C(=O)N1CCCCCCn1cc[n+](Cc2ccc(F)cc2F)c1.[Br-] 32

Ask | Would you mind telling me what MIC value was observed for O=C1c2cccc3c(Br)ccc(c23)C(=O)N1CCCn1c[n+](Cc2ccc(Cl)cc2)cn1.[Br-] ?
Reply | 8

Ask | Thanks! And O=C1c2cccc3c(Br)ccc(c23)C(=O)N1CCCCCn1cc[n+](Cc2ccc(F)cc2F)c1.[Br-] ?
Reply | 16

Ask | Thanks! And O=C1c2cccc3c(Br)ccc(c23)C(=O)N1CCCCCn1c[n+](Cc2ccc(F)cc2F)cn1.[Br-] ?
Reply | 8

Ask | Thanks! And O=C1c2cccc3c(Br)ccc(c23)C(=O)N1CCCn1c[n+](Cc2ccc(Cl)c(Cl)c2)cn1.[Br-] ?
Reply | 16

###

The reader will find reported MIC values listed item by item below.
- Test system: Staphylococcus aureus
- method-summary: Antibacterial activity against methicillin-resistant Staphylococcus aureus N 315 by microbroth dilution method
- Type: functional
Form entry: enter the amount, then its unit.

molecule	recorded-measurement
O=C1c2cccc3c(Br)ccc(c23)C(=O)N1CCCCCCn1ccnc1	64 µg/mL
O=C1c2cccc3c(Br)ccc(c23)C(=O)N1CCCn1c[n+](Cc2ccc(Cl)c(Cl)c2)cn1.[Br-]	16 µg/mL
O=C1c2cccc3c(Br)ccc(c23)C(=O)N1CCCCCn1c[n+](Cc2ccc(F)cc2F)cn1.[Br-]	16 µg/mL

Ask | Would you mind telling me what MIC value was observed for C[C@@H]1CN(c2c(F)c(F)c3c(=O)c(C(=O)O)cn(C4CC4)c3c2F)C[C@H](C)N1 [ORBIFLOXACIN] ?
Reply | 1 µg/mL

###

- System: Staphylococcus aureus
- method-summary: Antibacterial activity against methicillin-resistant Staphylococcus aureus N 315 by microbroth dilution method
- Assay type: functional
parameter-measured: MIC (µg/mL)
Write it as a number; the unit µg/mL goes unstated.

O=C1c2cccc3c(Br)ccc(c23)C(=O)N1CCCCCn1ccnc1 128
O=C1c2cccc3c(Br)ccc(c23)C(=O)N1CCCCn1ccnc1 16
O=C1c2cccc3c(Br)ccc(c23)C(=O)N1CCCn1c[n+](Cc2ccc([N+](=O)[O-])cc2)cn1.[Br-] 16
O=C1c2cccc3c(Br)ccc(c23)C(=O)N1CCCCn1cc[n+](Cc2ccc(F)cc2F)c1.[Br-] 2

Ask | Requested read-out MIC, target or system Staphylococcus aureus, entry O=C1c2cccc3c(Br)ccc(c23)C(=O)N1CCCCCCn1c[n+](Cc2ccc(F)cc2F)cn1.[Br-]
Reply | 32

Ask | Thanks! And O=C1c2cccc3c(Br)ccc(c23)C(=O)N1CCCCn1c[n+](Cc2ccc(F)cc2F)cn1.[Br-] ?
Reply | 16

Ask | Thanks! And O=C1c2cccc3c(Br)ccc(c23)C(=O)N1CCCn1ccnc1 ?
Reply | 16

Ask | Thanks! And O=C1c2cccc3c(Br)ccc(c23)C(=O)N1CCCn1c[n+](Cc2ccc(Cl)cc2)cn1.[Br-] ?
Reply | 8

###

- Test system: Escherichia coli
- method-summary: Antibacterial activity against Escherichia coli JM 109 by microbroth dilution method
- Assay type: functional
The reader will find reported MIC values listed item by item below.
Write it as a number; the unit µg/mL goes unstated.

compound	MIC (µg/mL)
O=C(N[C@H](CO)[C@H](O)c1ccc([N+](=O)[O-])cc1)C(Cl)Cl [CHLORAMPHENICOL]	8
O=C1c2cccc3c(Br)ccc(c23)C(=O)N1CCCCCCn1c[n+](Cc2ccc(F)cc2F)cn1.[Br-]	32
O=C1c2cccc3c(Br)ccc(c23)C(=O)N1CCCCn1ccnc1	8
O=C1c2cccc3c(Br)ccc(c23)C(=O)N1CCCCCCn1ccnc1	64
O=C1c2cccc3c(Br)ccc(c23)C(=O)N1CCCn1c[n+](Cc2ccc([N+](=O)[O-])cc2)cn1.[Br-]	16

Ask | Would you mind telling me what MIC value was observed for O=C1c2cccc3c(Br)ccc(c23)C(=O)N1CCCCCn1ccnc1 ?
Reply | 32

Ask | Thanks! And O=C1c2cccc3c(Br)ccc(c23)C(=O)N1CCCn1c[n+](Cc2ccccc2Cl)cn1.[Br-] ?
Reply | 16

###

- System: Bacillus subtilis
- method-summary: Antibacterial activity against Bacillus subtilis ATCC 6633 by microbroth dilution method
- Assay type: functional
Label Condition met when MIC is strictly below 20 µg/mL; otherwise label Condition not met.

molecule	study-system	category-label
O=C1c2cccc3c(Br)ccc(c23)C(=O)N1CCCn1c[n+](Cc2ccc(Cl)cc2Cl)cn1.[Br-]	Bacillus subtilis	Condition met

Ask | Is MIC strictly under 20 µg/mL for the entry O=C(N[C@H](CO)[C@H](O)c1ccc([N+](=O)[O-])cc1)C(Cl)Cl [CHLORAMPHENICOL] ?
Reply | Condition met

###

- System: Candida
- method-summary: Antifungal activity against Candida mycoderma by microbroth dilution method
- Format: functional
parameter-measured: MIC

Consider the following illustrative entries.
O=C1c2cccc3c(Br)ccc(c23)C(=O)N1CCCn1c[n+](Cc2ccc(Cl)c(Cl)c2)cn1.[Br-] 16 µg/mL
O=C1c2cccc3c(Br)ccc(c23)C(=O)N1CCCn1c[n+](Cc2ccc(F)cc2F)cn1.[Br-] 4 µg/mL
O=C1c2cccc3c(Br)ccc(c23)C(=O)N1CCCCCn1c[n+](Cc2ccc(F)cc2F)cn1.[Br-] 16 µg/mL
O=C1c2cccc3c(Br)ccc(c23)C(=O)N1CCCCn1ccnc1 32 µg/mL
O=C1c2cccc3c(Br)ccc(c23)C(=O)N1CCCCn1cc[n+](Cc2ccc(F)cc2F)c1.[Br-] 16 µg/mL
O=C1c2cccc3c(Br)ccc(c23)C(=O)N1CCCCCCn1ccnc1 32 µg/mL
O=C1c2cccc3c(Br)ccc(c23)C(=O)N1CCCCn1c[n+](Cc2ccc(F)cc2F)cn1.[Br-] 32 µg/mL
OC(Cn1cncn1)(Cn1cncn1)c1ccc(F)cc1F 4 µg/mL

API: the following record is the query input.
Ask | Would you mind telling me what MIC value was observed for O=C1c2cccc3c(Br)ccc(c23)C(=O)N1CCCCCCn1cncn1 ?
Reply | > 512 µg/mL

###

- Test system: Staphylococcus aureus
- method-summary: Antibacterial activity against methicillin-resistant Staphylococcus aureus N 315 by microbroth dilution method
- Assay type: functional
parameter-measured: MIC

Consider the following illustrative entries.
O=C1c2cccc3c(Br)ccc(c23)C(=O)N1CCCn1cncn1 > 512 µg/mL
O=C1c2cccc3c(Br)ccc(c23)C(=O)N1CCCCn1cncn1 > 512 µg/mL

API: the following record is the query input.
Ask | Would you mind telling me what MIC value was observed for O=C1c2cccc3c(Br)ccc(c23)C(=O)N1CCCCCCn1cncn1 ?
Reply | > 512 µg/mL

###

- System: Bacillus subtilis
- method-summary: Antibacterial activity against Bacillus subtilis ATCC 6633 by microbroth dilution method
- Assay type: functional
The reader will find reported MIC values listed item by item below.
Write it as a number; the unit mg/L goes unstated.

Consider the following illustrative entries.
molecule	MIC (mg/L)
O=C1c2cccc3c(Br)ccc(c23)C(=O)N1CCCn1c[n+](Cc2ccc(Cl)c(Cl)c2)cn1.[Br-]	32
O=C1c2cccc3c(Br)ccc(c23)C(=O)N1CCCCCCn1c[n+](Cc2ccc(F)cc2F)cn1.[Br-]	16
O=C1c2cccc3c(Br)ccc(c23)C(=O)N1CCCn1c[n+](Cc2ccc(F)cc2F)cn1.[Br-]	4
O=C1c2cccc3c(Br)ccc(c23)C(=O)N1CCCn1cc[n+](Cc2ccc(F)cc2F)c1.[Br-]	8

Ask | Would you mind telling me what MIC value was observed for O=C1c2cccc3c(Br)ccc(c23)C(=O)N1CCCCn1c[n+](Cc2ccc(F)cc2F)cn1.[Br-] ?
Reply | 16

Ask | Thanks! And O=C1c2cccc3c(Br)ccc(c23)C(=O)N1CCCn1ccnc1 ?
Reply | 16

Ask | Thanks! And O=C1c2cccc3c(Br)ccc(c23)C(=O)N1CCCCn1ccnc1 ?
Reply | 32

Ask | Thanks! And O=C1c2cccc3c(Br)ccc(c23)C(=O)N1CCCCCCn1cc[n+](Cc2ccc(F)cc2F)c1.[Br-] ?
Reply | 16

Ask | Thanks! And O=C1c2cccc3c(Br)ccc(c23)C(=O)N1CCCn1c[n+](Cc2ccccc2Cl)cn1.[Br-] ?
Reply | 32

Ask | Thanks! And O=C1c2cccc3c(Br)ccc(c23)C(=O)N1CCCn1cncn1 ?
Reply | 256

Ask | Thanks! And C[C@@H]1CN(c2c(F)c(F)c3c(=O)c(C(=O)O)cn(C4CC4)c3c2F)C[C@H](C)N1 [ORBIFLOXACIN] ?
Reply | 2

Ask | Thanks! And O=C1c2cccc3c(Br)ccc(c23)C(=O)N1CCCn1c[n+](Cc2ccc(Cl)cc2)cn1.[Br-] ?
Reply | 16

Ask | Thanks! And O=C1c2cccc3c(Br)ccc(c23)C(=O)N1CCCCCn1cc[n+](Cc2ccc(F)cc2F)c1.[Br-] ?
Reply | 16

Ask | Thanks! And O=C1c2cccc3c(Br)ccc(c23)C(=O)N1CCCn1c[n+](Cc2ccc([N+](=O)[O-])cc2)cn1.[Br-] ?
Reply | 32
